protocol-summary: Plasma drug concentrations by LC tandem MS
Format: in vivo, human
details: human, plasma, 4 hours after dosing, single dose (rofecoxib 25 mg, celecoxib 200 mg); read-out: plasma drug concentration, median
quantity-kind: concentration at 4 h (µg/mL)
Numeric only. Scale: µg/mL

In: Dear colleague, I am looking for the recorded concentration at 4 h of the following molecule: CS(=O)(=O)c1ccc(C2=C(c3ccccc3)C(=O)OC2)cc1
Out: 0.215
